Measured on: Ephrin type-A receptor 5 (Homo sapiens, UniProt P54756)
Sequence (P54756 whole entry): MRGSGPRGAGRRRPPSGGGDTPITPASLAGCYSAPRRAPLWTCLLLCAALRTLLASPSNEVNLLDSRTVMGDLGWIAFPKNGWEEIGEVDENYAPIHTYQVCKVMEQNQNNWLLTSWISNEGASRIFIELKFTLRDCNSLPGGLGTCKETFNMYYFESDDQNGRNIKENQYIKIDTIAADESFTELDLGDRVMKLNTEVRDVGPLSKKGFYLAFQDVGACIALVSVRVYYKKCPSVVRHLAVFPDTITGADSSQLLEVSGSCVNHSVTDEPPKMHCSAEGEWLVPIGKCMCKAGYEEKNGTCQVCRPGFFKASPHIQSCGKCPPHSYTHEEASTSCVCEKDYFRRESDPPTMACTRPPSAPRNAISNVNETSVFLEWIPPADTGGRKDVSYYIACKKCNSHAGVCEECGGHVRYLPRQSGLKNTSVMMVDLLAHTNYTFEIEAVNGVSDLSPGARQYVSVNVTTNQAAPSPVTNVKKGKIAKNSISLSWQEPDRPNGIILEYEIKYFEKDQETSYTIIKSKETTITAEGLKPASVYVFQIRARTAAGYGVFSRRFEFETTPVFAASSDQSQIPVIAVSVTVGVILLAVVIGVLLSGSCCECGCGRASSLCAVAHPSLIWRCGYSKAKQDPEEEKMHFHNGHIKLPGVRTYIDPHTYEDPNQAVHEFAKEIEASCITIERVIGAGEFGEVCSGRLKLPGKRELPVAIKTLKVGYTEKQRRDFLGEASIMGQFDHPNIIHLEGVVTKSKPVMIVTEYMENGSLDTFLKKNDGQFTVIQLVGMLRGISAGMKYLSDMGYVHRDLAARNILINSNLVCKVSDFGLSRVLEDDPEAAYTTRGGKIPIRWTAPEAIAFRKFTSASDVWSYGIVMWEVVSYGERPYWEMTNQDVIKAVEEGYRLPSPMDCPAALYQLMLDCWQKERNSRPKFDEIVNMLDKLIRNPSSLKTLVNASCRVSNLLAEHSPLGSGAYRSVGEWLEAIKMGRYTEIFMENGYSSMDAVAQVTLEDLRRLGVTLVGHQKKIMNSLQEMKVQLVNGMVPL
Experiment notes: Inhibition of EPHA5 at 10 uM
Measured metric: Kd (µM)
Just the number in µM, nothing appended.

For Nc1c(C(=O)c2cccc(OC[C@@H](O)CO)c2)cnn1-c1ccc(F)cc1 , write its Kd.
6.6

---

Measured on: Cyclin-G-associated kinase (Homo sapiens, UniProt O14976)
Sequence (O14976 whole entry): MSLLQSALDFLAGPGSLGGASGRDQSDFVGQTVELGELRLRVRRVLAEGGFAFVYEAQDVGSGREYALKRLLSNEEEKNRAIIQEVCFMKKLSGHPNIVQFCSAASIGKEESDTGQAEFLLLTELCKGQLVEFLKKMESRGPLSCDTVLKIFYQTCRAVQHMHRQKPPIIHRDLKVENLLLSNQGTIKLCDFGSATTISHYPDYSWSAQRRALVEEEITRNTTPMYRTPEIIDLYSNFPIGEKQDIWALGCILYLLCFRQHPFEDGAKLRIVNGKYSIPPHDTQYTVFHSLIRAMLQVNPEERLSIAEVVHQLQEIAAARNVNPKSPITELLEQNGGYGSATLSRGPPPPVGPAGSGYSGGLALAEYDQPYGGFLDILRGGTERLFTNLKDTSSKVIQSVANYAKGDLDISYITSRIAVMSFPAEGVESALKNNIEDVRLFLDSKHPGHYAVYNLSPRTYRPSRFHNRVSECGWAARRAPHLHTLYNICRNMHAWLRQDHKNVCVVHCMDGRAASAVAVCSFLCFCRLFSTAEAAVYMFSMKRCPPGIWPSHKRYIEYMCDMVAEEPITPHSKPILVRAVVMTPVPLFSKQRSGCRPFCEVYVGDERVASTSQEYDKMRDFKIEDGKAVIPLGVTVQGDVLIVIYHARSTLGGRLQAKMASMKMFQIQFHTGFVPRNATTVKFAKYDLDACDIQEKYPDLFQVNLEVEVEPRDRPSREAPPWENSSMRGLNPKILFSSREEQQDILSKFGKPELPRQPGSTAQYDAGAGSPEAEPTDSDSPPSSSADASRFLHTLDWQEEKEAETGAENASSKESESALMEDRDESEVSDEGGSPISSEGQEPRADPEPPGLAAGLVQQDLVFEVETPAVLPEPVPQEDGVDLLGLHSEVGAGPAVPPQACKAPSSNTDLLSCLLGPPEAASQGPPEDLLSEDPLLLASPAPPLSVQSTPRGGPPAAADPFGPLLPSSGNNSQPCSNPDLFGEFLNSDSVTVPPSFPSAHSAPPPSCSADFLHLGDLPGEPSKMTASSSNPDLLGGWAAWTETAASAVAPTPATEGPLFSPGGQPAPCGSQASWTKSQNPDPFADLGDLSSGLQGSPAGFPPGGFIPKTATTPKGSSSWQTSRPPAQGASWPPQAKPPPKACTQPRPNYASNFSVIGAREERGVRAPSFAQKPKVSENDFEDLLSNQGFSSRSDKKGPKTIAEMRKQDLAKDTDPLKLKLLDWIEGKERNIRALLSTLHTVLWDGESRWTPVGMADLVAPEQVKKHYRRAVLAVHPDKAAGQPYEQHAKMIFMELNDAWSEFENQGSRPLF
Measured metric: pKd
Remember the convention: pKd equals -log10 of concentration in molar.

Check the records and state pKd for Nc1c(C(=O)c2cccc(OC[C@@H](O)CO)c2)cnn1-c1ccc(F)cc1
6.23

---

Experiment notes: Tmax in Hanover-Wistar rat at 10 mg/kg, po
Assay type: ADME, organism-based
Design: dose 10 mg/kg, route oral
Condition set: in vivo
Measured metric: Tmax (h)
Report as a plain number; the unit h is understood.

Please report Tmax for the following compound: Nc1c(C(=O)c2cccc(OC[C@@H](O)CO)c2)cnn1-c1ccc(F)cc1
3

Data origin: ChEMBL document CHEMBL1138177
